Molecular target: T1, human CD24 on cells (human, UniProt P25063 27-59)
T1 chain (looked up): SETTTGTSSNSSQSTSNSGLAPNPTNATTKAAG
Assay: cell-based or functional assay
Quantity Measured: EC50 of Phagocytosis assay, IgG1, Kappa; HEK293-CD24 (µg/mL)
Answers are plain numbers, in µg/mL.

80-F10A6, IgG1, Kappa (antibody, V domains shown) VH: EVQLQQSGPVLVNPGASVKISCKASGYSFTGYYMNWVKQSPEKSLEWIGEVNPITGDTTYSQNFKAKTTLTVDRSSSTAYMQLKSLTSEDSAVYYCTRRDYGTSLDYWGQGTTLTVSS VL: DVQITQSPSYLAASPGETITIHCRASKSISRYLAWYQEKPGKINTLLIYAGSTLHLGIPSRFSGSGSGTDFTLTISSLELEDFAMYYCQQHNEYPITFGAGTKLELK = 0.39
89-E8C12 (4428), IgG1, Kappa (antibody, V domains shown) VH: EVQLQQSGPELVKPGASVKISCKASGYDFTGYYMNWMKQSPEKSLEWIGEINPITSHNTFNQKFKAKATLTVDRSSSTAYMHLKSLTSEDSAVYYCARRDYGTSLDYWGQGTTLTVSS VL: DVQITQSPSYLAASPGETITIYCRASKSISKYLAWYQEKPEKTIRLLIYAGSTLQSGIPSRFRGSGSGTDFTLTVSGLEPEDFAMYYCQQHNEYPLTFGAGTKLELK = 0.2
67-H2E7, IgG1, Kappa (antibody, V domains shown) VH: EVQLQQSGPELVKPGASVKISCKASGYEFTGYHMNWVKQSPEKSLEWIGEINPITSDKTFNQKFKAKATLTVDRSSTTAYMHLKSLTSEDSAVYYCARRDYDTSLDYWGQGTTLTVSS VL: DVQITQSPSYLAASPGETITIYCRASKSISKYLAWYQEKPEKTNRLLIYAGSTLQSGIPSRFRGSGSGKDFTLTVSGLEPEDFAMYYCQQHNEYPLTFGAGTKLDLK = 0.42
62-F7E9, IgG1, Kappa (antibody, V domains shown) VH: QVQLQQPGAELVKPGASVKLSCKASGYTSTSYWLHWVKQRPGRGLEWIGRIDPNSGETKFNEKFKSQATLTVDKPSSTAYMQLNSLTSEDSAVYYCALYYYGSILFDYWGQGTTLTVSS VL: ENVLTQSPAIMSASPGEKVTMTCRTSSIISSGFLHWYQQKSGASPKLWIYSTSNLASGVPARFSGSGSGTSYSLTISSVEAEDAATYYCQQYSGHPLTFGAGTKLELK = 5.15

Summary for this binder, 63-B10B9, IgG1, Kappa (antibody, V domains shown) VH: EVQLQQSGPELVKPGASVKISCKASGYSFTGYYMNWVKQSPEKSLEWIGEINPITGGTTYNQKFRAKATLTVDRSSSTAYMQLKSLTSEDSAVYYCTKRDYDTSLDYWGQGTTLIVSS VL: DVQITQSPSYLAAFPGETITINCRASKSIKKYLAWYQEKPGKTNNLLIYSGSTLQSGIPSRFSGSGTGTDFTLTISSLEPEDFAMYYCQQHNEYPLTFGAGTKLELK : EC50 of Phagocytosis assay, IgG1, Kappa; HEK293-CD24 is 7.02
